Sourced from paper PMC6172315

TARGET_ENTITY: E. core-Na^+/K^+-ATPase (Euploea core, UniProt A0A5C0C9F5)
Sequence (A0A5C0C9F5 1-1013): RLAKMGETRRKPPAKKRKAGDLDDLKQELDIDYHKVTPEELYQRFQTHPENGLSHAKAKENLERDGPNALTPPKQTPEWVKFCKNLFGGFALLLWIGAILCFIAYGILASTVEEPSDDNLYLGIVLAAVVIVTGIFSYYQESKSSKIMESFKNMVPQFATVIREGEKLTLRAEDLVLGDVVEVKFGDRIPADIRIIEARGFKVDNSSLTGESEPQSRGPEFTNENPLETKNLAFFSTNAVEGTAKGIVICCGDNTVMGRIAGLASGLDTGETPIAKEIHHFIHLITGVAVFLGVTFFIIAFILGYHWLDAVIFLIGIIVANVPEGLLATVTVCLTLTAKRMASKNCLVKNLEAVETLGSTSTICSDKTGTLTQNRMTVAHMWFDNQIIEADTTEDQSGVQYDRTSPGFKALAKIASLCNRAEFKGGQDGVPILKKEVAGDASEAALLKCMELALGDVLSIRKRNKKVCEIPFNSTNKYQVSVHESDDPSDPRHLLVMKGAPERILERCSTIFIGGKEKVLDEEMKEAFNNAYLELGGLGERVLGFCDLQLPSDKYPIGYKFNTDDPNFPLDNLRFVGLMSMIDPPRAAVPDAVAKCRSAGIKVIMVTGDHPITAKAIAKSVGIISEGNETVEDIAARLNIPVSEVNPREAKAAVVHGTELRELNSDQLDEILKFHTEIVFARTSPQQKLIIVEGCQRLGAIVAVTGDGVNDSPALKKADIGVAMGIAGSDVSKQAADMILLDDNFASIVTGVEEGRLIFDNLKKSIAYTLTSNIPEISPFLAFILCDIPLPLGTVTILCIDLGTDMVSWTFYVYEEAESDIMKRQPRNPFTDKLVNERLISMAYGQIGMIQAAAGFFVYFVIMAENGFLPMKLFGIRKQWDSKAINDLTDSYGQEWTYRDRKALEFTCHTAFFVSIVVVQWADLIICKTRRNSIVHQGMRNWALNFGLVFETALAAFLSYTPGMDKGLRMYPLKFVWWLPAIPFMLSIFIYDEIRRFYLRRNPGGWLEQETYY
ASSAY_DETAILS: In vitro inhibition assay of E. core Na+/K+-ATPase (phosphate release)
CONDITION: read-out: IC50 E. core- Na^+/K^+-ATPase; Na+/K+-ATPase extracted from butterfly brains
PROPERTY_MEASURED: log10 of IC50 (log10 of the value in nM)
Please be aware that the numbers have been log10-transformed from IC50 in nM.

| COMPOUND | TARGET_ENTITY | log10 of IC50 |
| --- | --- | --- |
| C[C@]12CC[C@H](O[C@@H]3O[C@H](CO)[C@@H](O)[C@H](O)[C@H]3O)C[C@@H]1CC[C@@H]1[C@@H]2CC[C@]2(C)[C@@H](C3=CC(=O)OC3)CC[C@]12O [desglucouzarin] | E. core-Na^+/K^+-ATPase (Euploea core, UniProt A0A5C0C9F5) | 2.79 |

Quick batch: log10 of IC50 for everything below.
1. C[C@@H]1C[C@@H](O)[C@]2(O)O[C@@H]3C[C@@]4(C=O)[C@@H](CC[C@@H]5[C@@H]4CC[C@]4(C)[C@@H](C6=CC(=O)OC6)CC[C@]54O)C[C@H]3O[C@@H]2O1 [calactin]
2. C[C@@H]1C[C@H](O)[C@]2(O)O[C@@H]3C[C@@]4(C=O)[C@@H](CC[C@@H]5[C@@H]4CC[C@]4(C)[C@@H](C6=CC(=O)OC6)CC[C@]54O)C[C@H]3O[C@@H]2O1 [calotropin]

Output line:
1: 1.96; 2: 2.51

Quick batch: log10 of IC50 for everything below.
1. CC12CCC(O)CC1CCC1C2CCC2(C)C(C3=CC(=O)OC3)CCC12O (stereo not shown) [uzarigenin]
2. C[C@]12CC[C@H](O[C@@H]3O[C@H](CO[C@@H]4O[C@H](CO)[C@@H](O)[C@H](O)[C@H]4O)[C@@H](O)[C@H](O)[C@H]3O)C[C@@H]1CC[C@@H]1[C@@H]2CC[C@]2(C)[C@@H](C3=CC(=O)OC3)CC[C@]12O [uzarin]
3. C[C@@H]1O[C@@H](O[C@H]2C[C@@H](O)[C@]3(CO)[C@H]4[C@H](O)C[C@]5(C)[C@@H](C6=CC(=O)OC6)CC[C@]5(O)[C@@H]4CC[C@]3(O)C2)[C@H](O)[C@H](O)[C@H]1O [ouabain, reference compound]

Output line:
3.66
3.46
3.01

Per the records, this compound ( C[C@]12CC[C@H](O)C[C@H]1CC[C@@H]1[C@@H]2CC[C@]2(C)[C@@H](C3=CC(=O)OC3)CC[C@]12O [digitoxigenin] ) has log10 of IC50 equal to 3.61
